We begin with a simple list: items and their reported glycan array binding signal (z-score).
# TARGET_OR_TEST_SYSTEM: Fuc(a1-2)Gal(b1-3)GlcNAc(b1-3)[Gal(b1-4)GlcNAc(b1-6)]Gal(b1-4)Glc
# EXPERIMENT_SUMMARY: glycan array binding signal (z-score within array); higher = stronger binding
# ASSAY_CONTEXT: glycan notation: IUPAC condensed, linker removed
Only a selection was taken, and the strongest signals are over-represented in it overall.
Just the number, please.

Epa19 (Candida glabrata) (protein) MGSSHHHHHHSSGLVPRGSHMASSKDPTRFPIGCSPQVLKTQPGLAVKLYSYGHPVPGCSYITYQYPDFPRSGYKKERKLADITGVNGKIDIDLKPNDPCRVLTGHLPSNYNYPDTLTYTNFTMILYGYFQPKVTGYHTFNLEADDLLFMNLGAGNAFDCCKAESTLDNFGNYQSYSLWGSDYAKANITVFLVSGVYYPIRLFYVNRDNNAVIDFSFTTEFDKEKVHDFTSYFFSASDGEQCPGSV    -0.333
SJCP1084 (Schistosoma japonicum) (protein) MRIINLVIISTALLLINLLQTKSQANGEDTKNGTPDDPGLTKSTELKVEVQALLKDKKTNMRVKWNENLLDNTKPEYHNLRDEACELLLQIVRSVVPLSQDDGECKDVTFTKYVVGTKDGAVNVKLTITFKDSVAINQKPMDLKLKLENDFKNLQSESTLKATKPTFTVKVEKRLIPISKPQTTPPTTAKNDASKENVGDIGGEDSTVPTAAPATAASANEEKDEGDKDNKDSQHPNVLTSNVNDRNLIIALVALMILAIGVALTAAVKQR    -0.827
Epa3to2 (Candida glabrata) (protein) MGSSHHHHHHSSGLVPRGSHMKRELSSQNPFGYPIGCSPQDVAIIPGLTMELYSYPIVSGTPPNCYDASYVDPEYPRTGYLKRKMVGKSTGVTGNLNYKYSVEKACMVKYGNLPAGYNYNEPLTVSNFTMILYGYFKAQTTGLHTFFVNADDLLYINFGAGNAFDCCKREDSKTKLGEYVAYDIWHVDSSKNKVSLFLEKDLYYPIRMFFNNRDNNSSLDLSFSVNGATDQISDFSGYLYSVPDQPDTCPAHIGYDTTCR    1.2
Pwp2 (Candida glabrata) (protein) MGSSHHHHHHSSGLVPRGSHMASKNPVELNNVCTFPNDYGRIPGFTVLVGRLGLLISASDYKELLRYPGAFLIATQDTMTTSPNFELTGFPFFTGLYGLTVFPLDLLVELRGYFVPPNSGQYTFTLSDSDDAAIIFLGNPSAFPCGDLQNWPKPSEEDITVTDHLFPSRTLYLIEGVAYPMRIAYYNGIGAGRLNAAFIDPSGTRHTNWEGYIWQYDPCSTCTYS    -0.594

For the next question, use this binder.
Problem: Sample RS2L (Ralstonia solanacearum), B5RXL5_RALSO (protein) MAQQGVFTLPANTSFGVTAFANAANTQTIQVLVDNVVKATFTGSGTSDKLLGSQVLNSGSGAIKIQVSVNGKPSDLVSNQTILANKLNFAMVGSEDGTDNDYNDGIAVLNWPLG — what was its glycan array binding signal (z-score)?
Solution: -0.211

Hello, the source for this data is the supplement of paper PMC8728848, in case you need it.
